- Test system: THP-1
- experimental details: CD54 surface expression induction over DMSO control (% over DMSO); higher = stronger dendritic cell activation
- measurement context: exposure time: 24 h
Counter-ions that a name gives are not always drawn.
metric name: CD54 surface expression induction
Lab note: record the figure alone, no unit after it.

Take a look at these entries with their results.
Nc1ccc(Cl)cc1Cl [2,4-Dichloroaniline] (200 µM)
-7.56
CN(C)c1ccc(N(C)C)cc1 [*N,N,N',N'-Tetramethyl-p-phenylenediamine] (200 µM)
91.8
CCNc1nc(NC(C)(C)C)nc(SC)n1 [Terbutryn] (100 µM)
1.12
COP(=S)(OC)Oc1nc(Cl)c(Cl)cc1Cl [Chlorpyrifos-methyl] (200 µM)
20.5
c1ccc(Nc2ccc(Nc3ccccc3)cc2)cc1 [N,N'-Diphenyl-p-phenylenediamine] (200 µM)
-11.2
CCC(C)(NC(=O)c1cc(Cl)c(C)c(Cl)c1)C(=O)CCl (stereo unspecified) [Zoxamide] (10 µM)
10.1
COP(=O)(OC)OC(Br)C(Cl)(Cl)Br (stereo unspecified) [Naled] (100 µM)
3.64
O=C1C=CC(=O)c2ccccc21 (10 µM)
239

**Query** CD54 surface expression induction for Nc1ccc(-c2ccccc2)cc1 [4-Biphenylamine hydrochloride] (100 µM) ?
**Result** -0.07

**Query** CD54 surface expression induction for COc1ccc(O)c(C(C)(C)C)c1 [2-tert-Butyl-4-methoxyphenol] (200 µM) ?
**Result** 0.6

**Query** CD54 surface expression induction for C[C@@H]1O[C@@H](O[C@H]2C[C@@H](O)[C@]3(CO)[C@H]4[C@H](O)C[C@]5(C)[C@@H](C6=CC(=O)OC6)CC[C@]5(O)[C@@H]4CC[C@]3(O)C2)[C@H](O)[C@H](O)[C@H]1O [Ouabain] (10 µM) ?
**Result** 21.9

----------
- Test system: THP-1
- experimental details: CD86 surface expression induction over DMSO control (% over DMSO); higher = stronger dendritic cell activation
- measurement context: exposure time: 24 h
Examples of molecules with documented CD86 surface expression induction follow.
Lab note: record the figure alone, no unit after it.

C[C@]12CC[C@H](O)C[C@H]1CC[C@@H]1[C@@H]2C[C@@H](O)[C@]2(C)[C@@H](C3=CC(=O)OC3)CC[C@]12O [Digoxigenin] (10 µM)
46.8
Nc1ccc(N)cc1 [1,4-Benzenediamine] (10 µM)
29
CC(C)CC(C)Nc1ccc(Nc2ccccc2)cc1 (centres undefined) [N-(1,3-Dimethylbutyl)-N'-phenyl-p-phenylenediamine] (10 µM)
59.8

Now take the following molecule into account.
**Query** CD86 surface expression induction for O=C1C=CC(=O)c2ccccc21 (10 µM) ?
**Result** 366

----------
- System: THP-1
- experimental details: CD54 surface expression induction over DMSO control (% over DMSO); higher = stronger dendritic cell activation
- measurement context: exposure time: 24 h
Structures can show the parent of a compound that is named as a salt.
Returns one of label 1 or label 0; label 1 when CD54 surface expression induction is >= -3.

CN(C)S(=O)(=O)N(SC(F)(Cl)Cl)c1ccccc1 [Dichlofluanid] (10 µM)
label 1
CCOC(=O)CC(SP(=S)(OC)OC)C(=O)OCC (configuration not stated) [Malathion] (100 µM)
label 1
Nc1cc(Cl)ccc1O [2-Amino-4-chlorophenol] (200 µM)
label 1
Nc1ccc2ccccc2c1 [2-Naphthylamine] (100 µM)
label 1
O=[N+]([O-])c1c(Cl)c(Cl)c(Cl)c(Cl)c1Cl [Pentachloronitrobenzene] (100 µM)
label 1

**Query** In plain terms: is recorded CD54 surface expression induction at least -3 for O=[N+]([O-])c1cc(C(F)(F)F)c(Cl)c([N+](=O)[O-])c1Cl [2,4-Dichloro-1,3-dinitro-5-(trifluoromethyl)benzene] (10 µM) ?
**Result** label 1

**Query** In plain terms: is recorded CD54 surface expression induction at least -3 for C[C@]12CC[C@H](O)C[C@H]1CC[C@@H]1[C@@H]2C[C@@H](O)[C@]2(C)[C@@H](C3=CC(=O)OC3)CC[C@]12O [Digoxigenin] (10 µM) ?
**Result** label 1

**Query** In plain terms: is recorded CD54 surface expression induction at least -3 for CCOP(=S)(OCC)SC(CCl)N1C(=O)c2ccccc2C1=O (configuration not stated) [Dialifor] (100 µM) ?
**Result** label 0

**Query** In plain terms: is recorded CD54 surface expression induction at least -3 for ClC1=C(Cl)C(Cl)(Cl)C(Cl)=C1Cl [Hexachlorocyclopentadiene] (200 µM) ?
**Result** label 1

**Query** In plain terms: is recorded CD54 surface expression induction at least -3 for COc1ccc2[nH]cc(CCN(C(C)C)C(C)C)c2c1 [5-Methoxy-N,N-diisopropyltryptamine hydrochloride] (224.7 µM) ?
**Result** label 0

**Query** In plain terms: is recorded CD54 surface expression induction at least -3 for O=C(CCl)CCl [1,3-Dichloropropanone] (200 µM) ?
**Result** label 1

**Query** In plain terms: is recorded CD54 surface expression induction at least -3 for CC(C)Nc1ccc(Nc2ccccc2)cc1 [N-Isopropyl-N'-phenyl-p-phenylenediamine] (10 µM) ?
**Result** label 1

----------
- System: KeratinoSens (HaCaT ARE-luciferase) cells
- experimental details: Nrf2/ARE luciferase activation call in qHTS KeratinoSens assay (1 = active, 0 = inactive);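 active = curve rank above 3; inactive = curve rank 0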
Output constraint: value belongs to yes for active, no for inactive

Example cases with answers are listed next.
CC[S+](C)CC.O=S(=O)([N-]S(=O)(=O)C(F)(F)F)C(F)(F)F
no
CCC[N+]1(C)CCCC1.O=S(=O)([N-]S(=O)(=O)C(F)(F)F)C(F)(F)F
no
CCCC[N+]1(C)CCCC1.O=S(=O)([N-]S(=O)(=O)C(F)(F)F)C(F)(F)F
no
CCCCCCCCCCCCCCCCCC(=O)[O-].OCC[NH+](CCO)CCO
yes
CCCC[N+](C)(C)C.O=S(=O)([N-]S(=O)(=O)C(F)(F)F)C(F)(F)F
no

**Query** Entry CCC[N+]1(C)CCCCC1.O=S(=O)([N-]S(=O)(=O)C(F)(F)F)C(F)(F)F : call = ?
**Result** no

**Query** Entry CCC(COC(=O)c1cc(OC)c(OC)c(OC)c1)(c1ccccc1)N(C)C.O=C(O)/C=C\C(=O)O (stereo not given) : call = ?
**Result** no

**Query** Entry CCCn1cc[n+](C)c1.O=S(=O)([N-]S(=O)(=O)C(F)(F)F)C(F)(F)F : call = ?
**Result** no

**Query** Entry CC[N+]1(C)CCCC1.O=S(=O)([N-]S(=O)(=O)C(F)(F)F)C(F)(F)F : call = ?
**Result** no

**Query** Entry CCCCCCCCn1cc[n+](C)c1.O=S(=O)([N-]S(=O)(=O)C(F)(F)F)C(F)(F)F : call = ?
**Result** no

**Query** Entry CCCCCCCCCCCCOS(=O)(=O)O.OCCN(CCO)CCO : call = ?
**Result** no

**Query** Entry O=C(O)CC(O)(CC(=O)O)C(=O)O.Oc1cccc2cccnc12 : call = ?
**Result** yes

**Query** Entry O=C(O)c1ccccc1O.OCCN(CCO)CCO : call = ?
**Result** no

**Query** Entry CC(=O)[O][Cr]([OH])[O]C(C)=O.CC(=O)[O][Cr]([OH])[O]C(C)=O.CC(=O)[O][Cr]([O]C(C)=O)[O]C(C)=O : call = ?
**Result** no

**Query** Entry C[N+](C)(C)CCO.O=S(=O)([N-]S(=O)(=O)C(F)(F)F)C(F)(F)F : call = ?
**Result** no

**Query** Entry CCCCCCCCCCCC(=O)O.OCCN(CCO)CCO : call = ?
**Result** no

**Query** Entry CCCCCCn1cc[n+](C)c1.O=S(=O)([N-]S(=O)(=O)C(F)(F)F)C(F)(F)F : call = ?
**Result** no

**Query** Entry O=C(O)/C=C\C(=O)O.c1ccc2nc(N3CCNCC3)ccc2c1 : call = ?
**Result** no

**Query** Entry CCN(CC)CCc1c[nH]c2ccccc12.CCN(CC)CCc1c[nH]c2ccccc12.O=C(O)/C=C/C(=O)O : call = ?
**Result** no

**Query** Entry CCCC[P+](CC)(CCCC)CCCC.CCOP(=O)([O-])OCC : call = ?
**Result** no

----------
- Test system: THP-1
- experimental details: CD86 surface expression induction over DMSO control (% over DMSO); higher = stronger dendritic cell activation
- measurement context: exposure time: 24 h
Where a name gives a salt, the structure may show the parent alone.
metric name: CD86 surface expression induction
Lab note: record the figure alone, no unit after it.

Take a look at these entries with their results.
CCC(C)(CC)c1cc(NC(=O)c2c(OC)cccc2OC)on1 [Isoxaben] (200 µM)
0.63
COc1ccc2[nH]cc(CCN(C(C)C)C(C)C)c2c1 [5-Methoxy-N,N-diisopropyltryptamine hydrochloride] (224.7 µM)
-4.94
ClC1=C(Cl)C2(Cl)C3C(Cl)C(Cl)CC3C1(Cl)C2(Cl)Cl (centres undefined) [Chlordane] (200 µM)
33.3
c1cc(OCC2CO2)cc(OCC2CO2)c1 (centres undefined) [Diglycidyl resorcinol ether (DGRE)] (10 µM)
-10.6
[Cl][Cd][Cl] [Cadmium II chloride] (200 µM)
51.1

**Query** CD86 surface expression induction for Fc1ccc(Oc2ccnc3cc(Cl)cc(Cl)c23)cc1 [Quinoxyfen] (200 µM) ?
**Result** 2.53

**Query** CD86 surface expression induction for NNCc1ccccc1 (100 µM) ?
**Result** 2.81

**Query** CD86 surface expression induction for O=C(O)c1ccccc1C(=O)Nc1cccc2ccccc12 [Naptalam*] (200 µM) ?
**Result** 78.5

**Query** CD86 surface expression induction for [CH3][Hg][Cl] [Methyl mercuric (II) chloride] (10 µM) ?
**Result** 86
